# inhibition values compiled below
method: inhibitors of PAF-induced NFkB signaling in CF airway cells, dose response, cell-based, uHTS hits, panel, cytotoxicity readout (AID 624344)
conditionDescription: CF bronchial epithelial cells, PAF-induced NFkB reporter inhibition, with PAF, run 2; at 79 µM (top of the series) unless noted
attributeMeasured: inhibition (%)

> print(dat)
                                    compound  resultvalue
 1  COc1ccccc1NS(=O)(=O)c1ccc(-c2cnc(C3CC3)o2)cc1         97.8
 2          Oc1ccc(CCNc2ncnc3ccc(Cl)cc23)cc1          106
 3  CCCCCCCCCc1nc2sc3c(c2c(=O)n1NC(=O)c1ccc([N+](=O)[O-])cc1)CC(C)(C)OC3          115
 4  Cc1ccc2occ(/C=N/NC(=O)c3ccccc3C)c(=O)c2c1          110
 5  Cc1ccc(NC(=O)c2cc(C(=O)c3cc(Cl)ccc3O)cn(-c3ccc(C)cc3)c2=O)cc1         96.9
 6  N#CC(C#N)=C1SC(=Nc2ccccc2)C(=Nc2ccccc2)N1c1ccccc1         99.1
 7   COc1ccc2cc(C(N)=O)c(=Nc3ccc(C)cc3)oc2c1         75.7
 8  O=C1OC(Nc2nc(-c3ccc(F)cc3)cs2)c2ccccc21 (stereo not drawn)          113
 9  O=C(Nc1cccc(Cl)c1)Nc1cc(S(=O)(=O)N2CCCCC2)ccc1Cl         97.2
10  O=c1[nH]c(C2CCN(S(=O)(=O)c3ccc4c(c3)OCCO4)CC2)nc2c1nnn2Cc1c(F)cccc1Cl          101
11              CCC(=O)c1ccc(O)c(CC=C(C)C)c1         97.8
12   CN(C)c1ccnc2sc3c(=O)n(Cc4ccccc4)cnc3c12         97.7
13    COc1cncc(-c2cnc3sc(NCCc4ccccn4)nn23)c1          109
14        COc1ccc(-c2cc(=O)oc3cc(O)ccc23)cc1          103
15  O=C(c1ccccc1)C1OC1C(=O)c1ccccc1 (stereo not drawn)          109
16              Brc1ccc2ncnc(NCc3cccnc3)c2c1         94.9
17  Cc1c([N+](=O)[O-])c2ccc(O)cc2n1-c1ccccc1         94.8
18              Nc1cc2c(cc1Br)-c1ccccc1C2=NO          106
19  Cc1nnc(SCC(=O)N2CCC(c3noc4ccc(F)cc34)CC2)s1          112
20  CCCNC(=O)COC(=O)c1ccccc1C(=O)c1ccc(Cl)c([N+](=O)[O-])c1         99.9
21  COc1ccc(C(=O)Nc2cccc(NC(=O)c3ccc(OC)c(OC)c3)n2)cc1OC          102
22       COc1cccc(-c2nnc3sc(C4CCCCC4)nn23)c1          104
23       Cn1nnnc1Sc1ncnc2scc(-c3ccc[nH]3)c12         61.6

* * *

# inhibition values compiled below
assayTarget: PEG-3 (UniProt Q6IN02)
Sequence (Q6IN02 whole entry, looked up): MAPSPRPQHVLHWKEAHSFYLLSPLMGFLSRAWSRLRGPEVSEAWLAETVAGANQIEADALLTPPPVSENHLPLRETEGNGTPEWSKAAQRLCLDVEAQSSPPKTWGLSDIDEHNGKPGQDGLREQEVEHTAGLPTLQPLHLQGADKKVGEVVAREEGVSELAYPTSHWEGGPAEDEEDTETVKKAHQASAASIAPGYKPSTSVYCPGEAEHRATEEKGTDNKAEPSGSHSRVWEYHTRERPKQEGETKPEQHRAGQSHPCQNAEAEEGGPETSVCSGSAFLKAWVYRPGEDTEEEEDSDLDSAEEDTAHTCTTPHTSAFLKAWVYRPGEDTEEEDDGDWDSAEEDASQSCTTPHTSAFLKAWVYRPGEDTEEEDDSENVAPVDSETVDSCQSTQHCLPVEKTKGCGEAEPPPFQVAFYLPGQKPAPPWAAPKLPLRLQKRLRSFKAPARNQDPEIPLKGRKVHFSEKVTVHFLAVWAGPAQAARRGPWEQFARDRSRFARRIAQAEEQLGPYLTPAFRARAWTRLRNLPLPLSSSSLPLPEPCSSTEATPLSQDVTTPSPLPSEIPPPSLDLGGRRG
method: Peg3 promoter luciferase inhibitors, potency, dose response, cell-based, HeLa, CREF/GAPDH counter-screen panel (AID 624167)
conditionDescription: CREF/GAPDH counter-screens; HeLa PEG-Prom luciferase reporter, overnight, run 2, dose range 1, at 100 µM (top of the series) unless noted
attributeMeasured: inhibition (%)

> print(dat)
                                    compound  resultvalue
 1  O/N=C(\c1ccc(Cl)cc1Cl)c1ncc(C(F)(F)F)cc1Cl         97.3
 2           CN=c1sc2c(n1C)C(=O)c1ccccc1C2=O         98.9
 3  Cc1nc(SCC(=O)Nc2nc3ccccc3s2)c(C#N)c(C)c1C           89
 4  CCC(=O)NC(c1cccs1)c1cc(Cl)c2cccnc2c1O (centres undefined)         99.5
 5  CCCCC(=O)NC(c1ccccc1Cl)c1ccc2cccnc2c1O (centres undefined)         87.3
 6  CC1(C)CC(NC(=O)c2sc3cc(Cl)ccc3c2Cl)CC(C)(C)N1          101
 7  COc1ccc(-c2cc(C(=O)N(C)Cc3cccc(OC)c3OC)c3ccccc3n2)cc1OC         74.7
 8           CCOc1ccc(OCc2cccc(C(=O)O)c2)cc1         91.5
 9   N#Cc1c(N)nc(SCc2ccncc2)c(C#N)c1-c1cccs1         99.2
10  CN(CCOc1ccc(Cl)cc1)C(=O)c1cc(-c2ccco2)nc2ccccc12         96.2
11      O=C(O)c1ccc(N/N=C/c2ccc3nccnc3c2)cc1          102
12  Cc1cccc(NC(=O)CSc2nc3ccccc3c3nc(CCc4c(C)n[nH]c4C)nn23)c1         95.8
13  CS(=O)(=O)c1ccc(C(=O)NCCN2C(=O)S/C(=C\c3cccnc3)C2=O)cc1[N+](=O)[O-]         99.2
14  COc1ccc(CCNC(=O)c2cc3c(=O)n4ccccc4nc3n(C3CCCCC3)c2=N)cc1          102
15  CC(=O)c1c(NCCc2ccccc2)nc(=S)n(-c2ccccc2)c1C           99
16  CC(C)CC1C(=O)N(Cc2cn(CCC3OCCO3)nn2)CCS(=O)(=O)N1Cc1ccc(-c2ccc(F)cc2)cc1 (centres undefined)         93.8
17       COc1cccc(NC(=O)Nc2cccc(C(=O)O)c2)c1         81.3
18  Cc1nn(C(C)(C)C)c(C)c1/C=N/OC(=O)Nc1ccc(Cl)cc1         98.3
19  Cc1cc(/C=N/Nc2ncnc(N)c2[N+](=O)[O-])c(C)n1-c1ccccc1           87
20  COc1cccc(NC(=O)c2nc(S(C)(=O)=O)ncc2Cl)c1          101
21        C(=Cc1cnc2ccccc2n1)c1ccc2c(c1)OCO2         98.4
22  COc1cccc2sc(N(CCCN(C)C)C(=O)C(c3ccccc3)c3ccccc3)nc12         95.1
23  CC(C)CC(N)c1csc(Nc2ccc(C(=O)c3ccccc3)cc2)n1 (centres undefined)          101
24  Cc1c([N+](=O)[O-])cc(N2C(=O)C=CC2=O)cc1[N+](=O)[O-]          102
25  C=CCn1c(C)cc(C(=O)COc2ccc(C)nc2[N+](=O)[O-])c1C         43.4
26  O=S(=O)(c1cccc(F)c1)N1CCN(c2nc(-c3cccnc3)nc3ccccc23)CC1         46.2
27  COc1ccc(CC(N)c2csc(NC(=O)Nc3ccccc3C(C)(C)C)n2)cc1 (centres undefined)         98.5
28  COc1ccc(N(C(=O)CCl)C(C(=O)NC2CCCCC2)c2cccnc2)cc1 (centres undefined)          102
29  COc1cc2ccccc2cc1C(=O)N(CCN(C)C)c1nc2c(OC)ccc(OC)c2s1          101
30  CCOc1cccc2sc(N(CCCN(C)C)C(=O)c3ccc(S(=O)(=O)N(CC)Cc4ccccc4)cc3)nc12          101
31          CCOc1ccc2nc(NC(=O)c3ccccn3)sc2c1         83.6
32  Cc1ccc(-n2cc(CNCCCn3ccnc3C)c(-c3ccc(F)cc3)n2)cc1         98.7
33  CNC(=O)c1ccsc1NC(=O)c1ccc(S(=O)(=O)N2CCc3ccccc32)cc1         63.5
34    Cc1ccc2oc(/N=C(\N)NC(=O)C(C)(C)C)nc2c1         94.5
35  CCCCNc1c(-c2cccc(Sc3ccc(OC)cc3)c2)nc2ccccn12         81.9
36       CCCc1ccc(C(=O)O/N=C(\N)c2ccccn2)cc1          102
37         O=C(O)c1cccc(COc2ccc3c(c2)CCC3)c1         99.1
38   Cn1c(=O)c(C(=O)CCl)c(N)n(Cc2ccccc2)c1=O         97.2
39             CC1CCN(c2ccc(-c3cccs3)nn2)CC1         97.2
40           O=S(=O)(Nc1cccc2ncccc12)c1cccs1         96.5
41  CCN(c1ccccc1)S(=O)(=O)c1ccc(C(=O)N(CCCN(C)C)c2nc3cc4c(cc3s2)OCO4)cc1           99
42          CN(C)c1ccc(N=Nc2nc3ccccc3n2C)cc1         98.9
43  COc1cccc(/C=N/NC(=O)c2c(C)nc3ccc(Cl)cn23)c1O         61.9
44  CCC(=O)NC(c1ccc(C)cc1)c1ccc2cccnc2c1O (centres undefined)         50.5
